- assay.comment: Pharmacokinetics of rivaroxaban in rats, alone and after multiple doses of almonertinib
- Format: in vivo, Sprague-Dawley (SD) rats
- measurement.conditions: male, Sprague-Dawley, rat, plasma, po, 2 mg/kg, rats, oral rivaroxaban 2 mg/kg after almonertinib 15 mg/kg for nine days (group 5), mean ± SD, n = 6
parameter.measured: Cmax (ng/mL)

record.smiles: O=C(NC[C@H]1CN(c2ccc(N3CCOCC3=O)cc2)C(=O)O1)c1ccc(Cl)s1
unit.label: ng/mL
value.measured: 862

----------
- assay.comment: Pharmacokinetics of almonertinib in rats, alone and after multiple doses of rivaroxaban or apixaban
- Type: in vivo, Sprague-Dawley (SD) rats
- measurement.conditions: male, Sprague-Dawley, rat, plasma, po, 15 mg/kg, rats, oral almonertinib 15 mg/kg alone (group 4, control solvent of apixaban), mean ± SD, n = 6; read-out: CLz/F (converted)

compound: C=CC(=O)Nc1cc(Nc2nccc(-c3cn(C4CC4)c4ccccc34)n2)c(OC)cc1N(C)CCN(C)C [almonertinib, Almonertinib]
unit.label: mL/min/kg
CL/F: 855

----------
- assay.comment: Pharmacokinetics of almonertinib in rats, alone and after multiple doses of rivaroxaban or apixaban
- Assay type: in vivo, Sprague-Dawley (SD) rats
- measurement.conditions: male, Sprague-Dawley, rat, plasma, po, 15 mg/kg, rats, oral almonertinib 15 mg/kg alone (group 4, control solvent of apixaban), mean ± SD, n = 6; read-out: t1/2z (converted)
- Experimental: Chromatographic separation was performed using an XSelect HSS T3 column (2.1 mm × 100 mm, 2.5 µm, Waters, Milford, MA, United States) at 40°C by gradient elution. The mobile phase consisted of water (A) and acetonitrile (0.1% formic acid, B). […] The flow rate was 0.35 mL min^−1, and the injection volume was 6 µL. The positive ion mode with multiple reaction detection was used. […]

compound: C=CC(=O)Nc1cc(Nc2nccc(-c3cn(C4CC4)c4ccccc34)n2)c(OC)cc1N(C)CCN(C)C [almonertinib, Almonertinib]
unit.label: h
half-life: 5.4

----------
- assay.comment: Pharmacokinetics of apixaban in rats, alone and after multiple doses of almonertinib
- Type: in vivo, Sprague-Dawley (SD) rats
- measurement.conditions: male, Sprague-Dawley, rat, plasma, po, 0.5 mg/kg, rats, oral apixaban 0.5 mg/kg after almonertinib 15 mg/kg for nine days (group 7), mean ± SD, n = 6

record.smiles: COc1ccc(-n2nc(C(N)=O)c3c2C(=O)N(c2ccc(N4CCCCC4=O)cc2)CC3)cc1
AUC(0-t) [ng·h/mL]: 2360

----------
- assay.comment: Pharmacokinetics of rivaroxaban in rats, alone and after multiple doses of almonertinib
- Type: in vivo, Sprague-Dawley (SD) rats
- measurement.conditions: male, Sprague-Dawley, rat, plasma, po, 1 mg/kg, rats, oral rivaroxaban 1 mg/kg after almonertinib 15 mg/kg for nine days (group 6), mean ± SD, n = 6

record.smiles: O=C(NC[C@H]1CN(c2ccc(N3CCOCC3=O)cc2)C(=O)O1)c1ccc(Cl)s1
AUC(0-inf) (ng·h/mL): 2230

----------
- assay.comment: Pharmacokinetics of almonertinib in rats, alone and after multiple doses of rivaroxaban or apixaban
- Format: in vivo, Sprague-Dawley (SD) rats
- measurement.conditions: male, Sprague-Dawley, rat, plasma, po, 15 mg/kg, rats, oral almonertinib 15 mg/kg alone (group 3, control solvent of rivaroxaban), mean ± SD, n = 6

record.smiles: C=CC(=O)Nc1cc(Nc2nccc(-c3cn(C4CC4)c4ccccc34)n2)c(OC)cc1N(C)CCN(C)C
unit.label: µg·h/mL
AUC(0-inf): 0.138

----------
- assay.comment: Pharmacokinetics of rivaroxaban in rats, alone and after multiple doses of almonertinib
- Format: in vivo, Sprague-Dawley (SD) rats
- measurement.conditions: male, Sprague-Dawley, rat, plasma, po, 2 mg/kg, rats, oral rivaroxaban 2 mg/kg alone (group 1), mean ± SD, n = 6; read-out: Vz/F

record.smiles: O=C(NC[C@H]1CN(c2ccc(N3CCOCC3=O)cc2)C(=O)O1)c1ccc(Cl)s1
Vd/F: 26.4 L/kg

----------
- assay.comment: Pharmacokinetics of apixaban in rats, alone and after multiple doses of almonertinib
- Type: in vivo, Sprague-Dawley (SD) rats
- measurement.conditions: male, Sprague-Dawley, rat, in vivo, po, 0.25 mg/kg; read-out: MRT0-∞
parameter.measured: MRT inf (h)

molecule: COc1ccc(-n2nc(C(N)=O)c3c2C(=O)N(c2ccc(N4CCCCC4=O)cc2)CC3)cc1 [apixaban, Apixaban]
unit.label: h
value.measured: 2.06

----------
- assay.comment: Pharmacokinetics of almonertinib in rats, alone and after multiple doses of rivaroxaban or apixaban
- Assay type: in vivo, Sprague-Dawley (SD) rats
- measurement.conditions: male, Sprague-Dawley, rat, plasma, po, 15 mg/kg, rats, oral almonertinib 15 mg/kg after rivaroxaban 2 mg/kg for five days (group 9), mean ± SD, n = 6; read-out: CLz/F (converted)
parameter.measured: CL/F (mL/min/kg)

compound: C=CC(=O)Nc1cc(Nc2nccc(-c3cn(C4CC4)c4ccccc34)n2)c(OC)cc1N(C)CCN(C)C [almonertinib, Almonertinib]
parameter.measured: CL/F
value.measured: 1040

----------
- assay.comment: Pharmacokinetics of almonertinib in rats, alone and after multiple doses of rivaroxaban or apixaban
- Type: in vivo, Sprague-Dawley (SD) rats
- measurement.conditions: male, Sprague-Dawley, rat, plasma, po, 15 mg/kg, rats, oral almonertinib 15 mg/kg alone (group 4, control solvent of apixaban), mean ± SD, n = 6; read-out: MRT0-t
- Protocol: Chromatographic separation was performed using an XSelect HSS T3 column (2.1 mm × 100 mm, 2.5 µm, Waters, Milford, MA, United States) at 40°C by gradient elution. The mobile phase consisted of water (A) and acetonitrile (0.1% formic acid, B). […] The flow rate was 0.35 mL min^−1, and the injection volume was 6 µL. The positive ion mode with multiple reaction detection was used. […]
parameter.measured: MRT last (h)

record.smiles: C=CC(=O)Nc1cc(Nc2nccc(-c3cn(C4CC4)c4ccccc34)n2)c(OC)cc1N(C)CCN(C)C
parameter.measured: MRT last
value.measured: 6.53

----------
- assay.comment: Pharmacokinetics of apixaban in rats, alone and after multiple doses of almonertinib
- Type: in vivo, Sprague-Dawley (SD) rats
- measurement.conditions: male, Sprague-Dawley, rat, plasma, po, 0.25 mg/kg, rats, oral apixaban 0.25 mg/kg after almonertinib 15 mg/kg for nine days (group 8), mean ± SD, n = 6

molecule: COc1ccc(-n2nc(C(N)=O)c3c2C(=O)N(c2ccc(N4CCCCC4=O)cc2)CC3)cc1 [apixaban, Apixaban]
Cmax [µg/mL]: 0.645

----------
- assay.comment: Pharmacokinetics of almonertinib in rats, alone and after multiple doses of rivaroxaban or apixaban
- Assay type: in vivo, Sprague-Dawley (SD) rats
- measurement.conditions: male, Sprague-Dawley, rat, plasma, po, 15 mg/kg, rats, oral almonertinib 15 mg/kg after rivaroxaban 2 mg/kg for five days (group 9), mean ± SD, n = 6

record.smiles: C=CC(=O)Nc1cc(Nc2nccc(-c3cn(C4CC4)c4ccccc34)n2)c(OC)cc1N(C)CCN(C)C
Tmax: 3.17 h

Data origin: paper PMC10582335
